Assign melting point to each entry below.

                                   compound  experimental_endpoint         result
0  O=C1NCCCN1c1cc(C(c2cc(F)ccc2F)S(=O)(=O)c2ccc(Cl)cc2)c(Cl)cn1 (stereo not given)          melting point       > 230 °C
1         O=C(O)c1cc(=O)c(Cl)c(-c2ccccc2)o1          melting point  216 to 218 °C
2  CCCN(CCC)C1Cc2cccc3ccc(=O)n(c23)C1 (stereo not given)          melting point    82 to 84 °C

Count: 2. Required value per item: melting point.
1. O=C1c2cccc3cccc(c23)C(=O)N1CCCCN1CCC(O)(c2ccccc2)CC1
2. Cc1cc(OC2CCS(=O)(=O)CC2)cc(C)c1-c1cccc(COc2ccc(C3CC3C(=O)O)cc2)c1 (stereo not given)

1. 138 to 139 °C
2. 161 to 162 °C

====

Provide the recorded melting point for the entries that follow.

For every item in the list below, what is its measured melting point?
1. CCCCCCCC(=O)c1[nH]c(=O)[nH]c1C
2. Cn1ccc2c3c(c(C(=O)OCc4ccccc4)cc21)C(=O)NC3=O
3. CC(=O)c1sc(=O)[nH]c1C

220 to 221 °C
186 to 189 °C
208 to 211 °C

Could I get melting point for every one of these entries?
1. COc1ccc(-c2nc(-c3ccccn3)cs2)cc1
2. Nc1ncc2cc(-c3ccccc3)c(N)nc2n1
3. N#Cc1cccc(NCc2nc3ccc(F)cc3c(=O)n2-c2ccccc2Cl)c1

1: 100 to 103 °C; 2: 317 to 318 °C; 3: 225 to 228 °C

====

Can you tell me melting point for the items I'm about to list?

                                   molecule         result
0   COc1cccc(CCSc2c(O)cc(-c3ccccc3)oc2=O)c1  112 to 113 °C
1          N#Cc1sc2cc([N+](=O)[O-])ccc2c1Cl  204 to 205 °C
2  O=C(NC(=O)c1c(Cl)cccc1OCc1ccccc1)Nc1ccc(C(F)(F)F)cc1         264 °C
3  O=C(Nc1ccccc1Nc1ccnc2c(NC(=O)c3c(Cl)cccc3Cl)cccc12)c1cccnc1  151 to 154 °C

Now take the following molecule into account.
Which melting point value belongs to CCOC(=O)C(CCCCOc1ccccc1)C(=O)O (stereo not given) ?
69 to 72 °C

====

Field: melting point. Provide a value for each of the compounds that follow.

                                   compound         result
0  Cn1ccc(NC(=O)Nc2cccc3c2C2CCCCN2C3=O)n1 (stereo unspecified)         233 °C
1  CCCCCCNC(=O)NOCC(O)CN1CCCCC1 (stereo unspecified)    50 to 52 °C
2      CCOC(=O)c1cnn(-c2ccc(OC)c(C#N)c2)c1N  195 to 196 °C

Hello, I would appreciate it if you could give melting point for each entry below.
1. COc1cc2c(Nc3cccc(N(C)C)c3)c(C#N)cnc2c(OC)c1OC
2. Cc1nc(Br)sc1C(=O)NCc1ccccc1

["142 to 144 °C", "92 to 94 °C"]

Give melting point for each of the items listed below.
1. CC(C)(C)OC(=O)N(C1CCNCC1)C1CCOCC1
2. COc1c(C=CC(=O)c2ccc(O)cc2)ccc(O)c1C
3. CC(C)n1nc(-c2c(-c3ccccc3)nn3ccc(C(=O)NC(C)(C)C)cc23)ccc1=O
4. COc1ccc(-c2ccc(CC(=O)O)cc2F)cc1

["104 °C", "185 to 187 °C", "200 to 201 °C", "140 to 142 °C"]

Hey, quick one: what's melting point for each of these?
1. N#Cc1cnc(N)cc1N
2. CC(O)CN(CCc1ccc(Nc2ncc3c(n2)-c2ccccc2C(c2cccc(Br)c2)C3)cc1)Cc1ccccc1 (stereo unspecified)

["197 to 198 °C", "90 to 92 °C"]

====

Assignment: determine reported melting point for the given compounds.

The examples below pair each entry with its known result.
>>> print(df.to_string())
                                   compound  experimental_endpoint         result
0  O=C(Nc1cccc(Oc2ccc3nc(NC(=O)C4CC4)cn3n2)c1)c1ccccc1          melting point         265 °C
1  O=Cc1ccn(-c2c(Cl)cc(C(F)(F)F)cc2Cl)c(=O)c1          melting point  115 to 117 °C
2  COc1ccc(C[C@H](Nc2nc3ccc(Cl)cc3cc2C(=O)O)C(=O)O)cc1          melting point  155 to 158 °C
3  O=C(COc1ccc(-c2ccccc2-c2nn[nH]n2)cc1)C1CC1          melting point  184 to 185 °C
4     CN(c1ccccc1)c1nc(Cl)c([N+](=O)[O-])s1          melting point  136 to 137 °C
5     CC(C)(C)OC(=O)N1CCN(C(=O)c2ccccc2)CC1          melting point         106 °C

# map each compound to its melting point
1. O=C(O)[C@H](Cc1cccc(OC(F)(F)C(F)F)c1)[C@@H](O)c1ccc(Oc2ccccc2)cc1 (racemic)
2. O=C(c1ccc(F)cc1)c1cccnc1C(=O)O
3. Clc1ccc(C2CC(n3cncn3)c3ccccc3N2)cc1 (stereo not given)
4. O=C1Nc2ccc(Cl)cc2C1(NCCO)c1ccccc1Cl (stereo not given)

1. 109 to 110 °C
2. 152 to 153 °C
3. 150 to 152 °C
4. 198 to 200 °C

====

EXPERIMENTAL_ENDPOINT: melting point

Reference set, count: 3
>>> df
                                   compound         result
0  CCOCc1c2c(n(Cc3ccccc3)c1-c1ccccc1)C(C)CN(Cc1ccccc1)C2 (stereo not given)    96 to 98 °C
1               Cc1cccc(Br)c1-c1c(C)cccc1Br  90 to 92.3 °C
2  COc1cc2c(cc1OC)C(COCCN1CCCCC1)OCCC2 (stereo not given)         124 °C

Would you be so kind as to report melting point for each listed record?
1. OCCCCOc1ccc2ccccc2c1
2. O=C(Nc1ccc(C(F)(F)F)cc1)N1CC2CCc3cc(Cl)ccc3C2=N1 (stereo not given)
3. CN1C(=O)CC[C@]2(C)c3ccc(-c4ccc5c(c4)CCC5O)cc3CC[C@@H]12 (stereo not given in full)
4. NS(=O)(=O)c1cccc(NC(=O)c2cnn3c(C(F)(F)F)cc(-c4ccc(C(F)(F)F)c(OCC(F)(F)F)c4)nc23)c1
5. OC(CNCCNc1ccc(Cl)nn1)COc1ccccc1 (stereo not given)
6. Clc1ccc(/C=C/C2=CCN(Cc3ccccc3)CC2)cc1
7. CCN1CCCC1CNC(=O)c1cc([N+](=O)[O-])c(Cl)cc1OC (stereo not given)

1: 66.5 to 67.5 °C; 2: 196 to 199 °C; 3: 185 to 190 °C; 4: 233 °C; 5: 147 to 149 °C; 6: 123 to 125 °C; 7: 107 to 108 °C

====

EXPERIMENTAL_ENDPOINT: melting point

Worked examples follow.
>>> df
                                   compound  experimental_endpoint         result
0       CCOC(=O)C=CC(=O)c1ccc(Oc2ccccc2)cc1          melting point  50 to 53.5 °C
1  CNCCC1CCc2cc(OCc3ccc(-c4ccccc4)cc3)ccc2C1 (stereo not given)          melting point    75 to 76 °C
2       CC(=O)Nc1sc2c(c1C(=O)c1ccccc1)CCCC2          melting point  116 to 119 °C
3  CC(=O)CN1CCN(C(=O)Cn2c(=O)sc3ncc(Cl)cc32)CC1          melting point  191 to 193 °C
4  CCCc1nc2c(N)nc3ccccc3c2n1Cc1cc(-c2ccc(F)cc2)no1          melting point  226 to 227 °C
5             COC(=O)CS(=O)(=O)CCC=C1SC=CS1          melting point  133 to 135 °C

Please give melting point, item by item, for the list that follows.
1. O=C(O)C1Cc2ccccc2C1
2. Cc1c(S(=O)c2ccc([N+](=O)[O-])cc2)cc(C(C)(C)C)c(O)c1C(=O)O (stereo not given)
3. CSc1ccc(C2=NC[C@@H](O)[C@H](c3ccccc3)O2)cc1 (racemic)
4. CCC(OCC(F)(F)F)c1ccc(Cl)c2nc3n(c12)CCCN3c1ccc(Cl)cc1Cl (stereo not given)

130 °C
201 to 202 °C
130 °C
146 to 148 °C

Just for reference, a melting point compilation (Tetko et al.; mined from patent text by program, amines drawn as free bases though some values may be those of a salt) is where these values come from.
